# system-name: WT EZH2 (EZH2 4 protein complex: EZH2, EED, SUZ12, RbAp48) (Homo sapiens, UniProt O75530+Q09028+Q15022+Q15910)
# Sequence (Q15910 whole entry): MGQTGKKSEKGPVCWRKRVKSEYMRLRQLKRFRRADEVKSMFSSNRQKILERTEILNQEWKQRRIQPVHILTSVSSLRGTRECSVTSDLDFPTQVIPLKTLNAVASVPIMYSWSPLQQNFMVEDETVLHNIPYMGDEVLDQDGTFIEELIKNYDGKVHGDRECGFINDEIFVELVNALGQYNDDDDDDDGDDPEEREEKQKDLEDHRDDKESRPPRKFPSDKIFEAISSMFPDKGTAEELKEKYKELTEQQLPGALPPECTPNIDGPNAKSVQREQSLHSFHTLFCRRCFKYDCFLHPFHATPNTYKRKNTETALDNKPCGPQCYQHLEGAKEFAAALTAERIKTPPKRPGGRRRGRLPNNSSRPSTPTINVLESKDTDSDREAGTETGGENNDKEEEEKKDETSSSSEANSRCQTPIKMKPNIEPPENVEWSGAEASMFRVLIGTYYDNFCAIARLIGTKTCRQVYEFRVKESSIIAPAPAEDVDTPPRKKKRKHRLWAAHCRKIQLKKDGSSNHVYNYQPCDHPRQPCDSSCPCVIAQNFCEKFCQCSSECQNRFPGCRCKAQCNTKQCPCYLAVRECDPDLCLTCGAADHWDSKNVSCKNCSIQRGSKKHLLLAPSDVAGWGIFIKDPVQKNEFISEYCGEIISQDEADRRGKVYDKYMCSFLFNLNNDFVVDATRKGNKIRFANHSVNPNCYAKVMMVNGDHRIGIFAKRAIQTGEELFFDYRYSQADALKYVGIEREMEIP
# Sequence (O75530 whole entry partner): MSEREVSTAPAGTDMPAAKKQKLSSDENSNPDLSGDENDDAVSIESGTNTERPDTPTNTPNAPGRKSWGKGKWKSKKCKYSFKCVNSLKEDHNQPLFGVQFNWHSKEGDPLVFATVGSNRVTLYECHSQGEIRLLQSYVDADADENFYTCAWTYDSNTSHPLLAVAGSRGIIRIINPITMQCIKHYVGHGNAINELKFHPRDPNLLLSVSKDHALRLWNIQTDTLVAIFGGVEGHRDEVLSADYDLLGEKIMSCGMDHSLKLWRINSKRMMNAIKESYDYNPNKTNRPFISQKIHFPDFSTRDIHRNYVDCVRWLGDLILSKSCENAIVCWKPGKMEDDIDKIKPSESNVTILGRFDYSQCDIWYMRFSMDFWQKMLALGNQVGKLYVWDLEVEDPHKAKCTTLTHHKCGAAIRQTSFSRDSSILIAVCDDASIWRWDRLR
# Sequence (Q15022 whole entry partner): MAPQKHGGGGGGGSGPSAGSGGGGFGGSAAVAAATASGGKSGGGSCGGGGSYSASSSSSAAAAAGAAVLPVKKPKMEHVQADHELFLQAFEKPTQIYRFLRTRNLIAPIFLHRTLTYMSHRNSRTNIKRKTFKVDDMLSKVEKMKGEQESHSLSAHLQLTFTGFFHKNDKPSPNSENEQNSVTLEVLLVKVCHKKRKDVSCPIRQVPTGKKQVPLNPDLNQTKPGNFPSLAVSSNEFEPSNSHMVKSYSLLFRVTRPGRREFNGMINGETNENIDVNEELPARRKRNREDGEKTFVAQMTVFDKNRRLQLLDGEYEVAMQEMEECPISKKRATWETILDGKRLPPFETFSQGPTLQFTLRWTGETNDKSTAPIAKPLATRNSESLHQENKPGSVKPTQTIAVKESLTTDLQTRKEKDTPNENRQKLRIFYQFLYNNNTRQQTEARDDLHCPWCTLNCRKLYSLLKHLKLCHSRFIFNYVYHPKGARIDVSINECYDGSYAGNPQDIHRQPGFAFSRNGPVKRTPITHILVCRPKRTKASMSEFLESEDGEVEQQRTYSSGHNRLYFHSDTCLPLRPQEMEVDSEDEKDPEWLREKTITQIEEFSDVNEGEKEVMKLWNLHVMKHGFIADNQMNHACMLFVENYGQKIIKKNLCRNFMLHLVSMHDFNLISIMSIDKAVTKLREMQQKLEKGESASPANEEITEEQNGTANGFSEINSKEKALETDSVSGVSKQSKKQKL
# Sequence (Q09028 whole entry partner): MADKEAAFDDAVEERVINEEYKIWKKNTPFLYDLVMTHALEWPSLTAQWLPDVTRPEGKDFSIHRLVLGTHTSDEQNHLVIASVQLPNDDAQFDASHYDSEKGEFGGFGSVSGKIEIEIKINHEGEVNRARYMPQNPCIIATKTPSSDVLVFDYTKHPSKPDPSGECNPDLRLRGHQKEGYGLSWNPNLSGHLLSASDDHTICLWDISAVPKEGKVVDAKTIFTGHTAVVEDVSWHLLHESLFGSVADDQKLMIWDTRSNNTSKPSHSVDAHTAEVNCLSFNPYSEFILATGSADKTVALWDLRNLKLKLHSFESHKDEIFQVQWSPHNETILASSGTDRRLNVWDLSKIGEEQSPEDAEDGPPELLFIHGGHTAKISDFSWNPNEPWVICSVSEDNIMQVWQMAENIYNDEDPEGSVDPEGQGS
# method-notes: WT EZH2 nucleosome assay
# Format: biochemical
# protocol-conditions: nucleosome assay, 5 nM EZH2 4-protein complex, 1.5 μM SAM; read-out: WT EZH2 IC50
Could you mark each record 1.0 if its IC50 falls strictly under 8 µM, and 0.0 if it equals or exceeds it?

> print(dat)
                                 chem.smiles  qualitative.label
 1  Cc1cc(C(F)(F)F)c(CNC(=O)c2cccc(-c3ccnn3C)c2Cl)c(=O)[nH]1                0.0
 2  Cc1cc(C)c(CNC(=O)c2cc(Cl)cc(-n3ncnc3C)c2C)c(=O)[nH]1                1.0
 3  CCc1nncn1-c1cc(Cl)cc(C(=O)NCc2c(C)cc(C)[nH]c2=O)c1C                1.0
 4  Cc1cc(C)c(CNC(=O)c2c(F)ccc(OC(C)C)c2Cl)c(=O)[nH]1                0.0
 5  Cc1cc(C)c(CNC(=O)c2nc(-c3cnc(N(C)C)nc3)nc(-c3ccnn3C)c2C)c(=O)[nH]1                1.0
 6  Cc1cc(C)c(CNC(=O)c2nc(N3CCCC3)nc(-c3ccnn3C)c2C)c(=O)[nH]1                0.0
 7  Cc1cc(C)c(CNC(=O)c2ncnc(N3CCC[C@@H]3C)c2C)c(=O)[nH]1                1.0
 8  Cc1cc(C)c(CNC(=O)c2cccc(-c3c(C)ncnc3C)c2C)c(=O)[nH]1                1.0
 9  Cc1cc(C)c(CNC(=O)c2nc(-c3cncnc3)nc(N3CCC[C@@H]3C)c2C)c(=O)[nH]1                1.0
10  Cc1cc(C)c(CNC(=O)c2cc(Cl)cc(-n3c(C)cnc3C)c2C)c(=O)[nH]1                1.0
11  Cc1cc(C)c(CNC(=O)c2nc(OCCN3CCC(F)(F)CC3)nc(-c3ccnn3C)c2C)c(=O)[nH]1                0.0
12  Cc1cc(C)c(CNC(=O)c2nccc(-c3ccnn3C)c2C)c(=O)[nH]1                0.0
13  CCn1ncc(C)c1-c1cccc(C(=O)NCc2c(C)c(Br)c(C)[nH]c2=O)c1C                0.0
14  COC1CCN(c2nc(C(=O)NCc3c(C)cc(C)[nH]c3=O)c(C)c(-c3ccnn3C)n2)CC1                1.0
15  Cc1cc(C)c(CNC(=O)c2ncnc(N3CC[C@H]4C[C@H]43)c2C)c(=O)[nH]1                0.0

---

# system-name: EZH2PRC2 mutant Y641N (Homo sapiens, UniProt Q15910, Y641N)
# Sequence (Q15910 whole entry Y641N): as the sequence (Q15910 whole entry) above, with Y641N counted along it
# Sequence (O75530 whole entry partner): as the sequence (O75530 whole entry partner) above
# Sequence (Q15022 whole entry partner): as the sequence (Q15022 whole entry partner) above
# Sequence (Q09028 whole entry partner): as the sequence (Q09028 whole entry partner) above
# method-notes: EZH2PRC2 mutant Y641N nucleosome assay
# Format: biochemical
# protocol-conditions: read-out: EZH2PCR2 Mutant Y641N IC50
pIC50: −log10 of the molar value.
Each item that follows carries a reported pIC50.
endpoint-name: pIC50

> print(dat)
                                chem.smiles  test.result
1  CNc1ncc(-c2cc(C(=O)NCc3c(C)cc(C)[nH]c3=O)c(C)c(-c3c(C)cnn3C)c2)cn1         6.52
2  Cc1cc(C)c(CNC(=O)c2ncnc(N3CCN(C)C[C@@H]3C)c2C)c(=O)[nH]1         4.63
3  Cc1cc(C)c(CNC(=O)c2cc(-c3cnc(N(C)C)nc3)cc(-c3ccnn3C)c2C)c(=O)[nH]1         6.21
4  COc1cccc(C(=O)NCc2c(C)cc(C)[nH]c2=O)c1Cl         4.37

---

# system-name: WT EZH2 (EZH2 4 protein complex: EZH2, EED, SUZ12, RbAp48) (Homo sapiens, UniProt O75530+Q09028+Q15022+Q15910)
# method-notes: WT EZH2 nucleosome assay
# Type: biochemical
# protocol-conditions: nucleosome assay, 5 nM EZH2 4-protein complex, 1.5 μM SAM; read-out: WT EZH2 IC50
Labelling field: enter 1.0 if recorded IC50 is less than 40 µM. Enter 0.0 if it equals or exceeds that cut-off.

> print(dat)
                                chem.smiles  qualitative.label
1  Cc1cc(C)c(CNC(=O)c2ncnc(N3CCC[C@@H]3c3ccccn3)c2C)c(=O)[nH]1                0.0
2  Cc1cc(C)c(CNC(=O)c2cccc(-c3c(C)cnn3C)c2C)c(=O)[nH]1                1.0
3  Cc1cc(C)c(CNC(=O)c2ncnc(OC(C)C)c2Cl)c(=O)[nH]1                1.0
4  COc1cccc(C(=O)NCc2c(C)cc(C)[nH]c2=O)c1Cl                1.0
5   COc1cccc(C(=O)NCc2c(C)cc(C)[nH]c2=O)c1F                0.0
6  Cc1cc(C)c(CNC(=O)c2cc(Cl)cc(-n3nccc3C)c2C)c(=O)[nH]1                1.0
7  Cc1ccc(CNC(=O)c2nc(C3CC3)nc(-c3ccnn3C)c2C)c(=O)[nH]1                0.0
8  CCCc1c(OC)cccc1C(=O)NCc1c(C)cc(C)[nH]c1=O                0.0

---

# system-name: WT EZH2 (EZH2 4 protein complex: EZH2, EED, SUZ12, RbAp48) (Homo sapiens, UniProt Q15910)
# Sequence (Q15910 whole entry): as the sequence (Q15910 whole entry) above
# Sequence (O75530 whole entry partner): as the sequence (O75530 whole entry partner) above
# Sequence (Q15022 whole entry partner): as the sequence (Q15022 whole entry partner) above
# Sequence (Q09028 whole entry partner): as the sequence (Q09028 whole entry partner) above
# method-notes: WT EZH2 nucleosome assay
# Type: biochemical
# protocol-conditions: compound at 20 μM; nucleosome assay
endpoint-name: % Effect in WT EZH2 at 20 μM (%)

> print(dat)
                                    compound                 endpoint.name  units.text  test.result
 1  Cc1cc(C)c(CNC(=O)c2cccc(OC(C)C)c2Cl)c(=O)[nH]1 [Example 46]  % Effect in WT EZH2 at 20 μM           %       93.582
 2  Cc1cc(C)c(CNC(=O)c2cc(Cl)cc(-c3ccnn3C)c2C)c(=O)[nH]1 [Example 5]  % Effect in WT EZH2 at 20 μM           %        94.88
 3  Cc1cc(-c2cc(Cl)cc(C(=O)NCc3c(C)cc(C)[nH]c3=O)c2C)n(C)n1 [Example 77]  % Effect in WT EZH2 at 20 μM           %       69.743
 4  COc1cc(OC)c(Cl)c(C(=O)NCc2c(C)cc(C)[nH]c2=O)c1Cl [Example 126]  % Effect in WT EZH2 at 20 μM           %       38.121
 5  CCCc1c(OC)cccc1C(=O)NCc1c(C)cc(C)[nH]c1=O [Example 128]  % Effect in WT EZH2 at 20 μM           %       38.993
 6  COc1cccc(C(=O)NCc2c(C)cc(C)[nH]c2=O)c1F [Example 137]  % Effect in WT EZH2 at 20 μM           %       20.924
 7  Cc1cc(C)c(CNC(=O)c2cccc(OC(C)C)c2C)c(=O)[nH]1 [Example 32]  % Effect in WT EZH2 at 20 μM           %       83.654
 8  Cc1cc(C)c(CNC(=O)c2c(Cl)ccc(OCCN3CCCC3)c2Cl)c(=O)[nH]1 [Example 129]  % Effect in WT EZH2 at 20 μM           %       32.145
 9  Cc1cc(C)c(CNC(=O)c2cc(-c3cnn(C)c3)cc(OC(C)C)c2Cl)c(=O)[nH]1 [Example 26]  % Effect in WT EZH2 at 20 μM           %       93.705
10  Cc1cc(C)c(CNC(=O)c2ccnc(OC(C)C)c2F)c(=O)[nH]1 [Example 138]  % Effect in WT EZH2 at 20 μM           %       44.736
11  Cc1cc(C)c(CNC(=O)c2cc(-c3cnn(C)c3)nc(OC(C)C)c2Cl)c(=O)[nH]1 [Example 33]  % Effect in WT EZH2 at 20 μM           %       92.965
12  Cc1cc(C)c(CNC(=O)c2nccc(OC(C)C)c2C)c(=O)[nH]1 [Example 82]  % Effect in WT EZH2 at 20 μM           %       69.830
13  COc1ccc(OC)c(C(=O)NCc2c(C)cc(C)[nH]c2=O)c1Cl [Example 119]  % Effect in WT EZH2 at 20 μM           %       44.087
14  Cc1cc(C)c(CNC(=O)c2ccnc(OC(C)C)c2Cl)c(=O)[nH]1 [Example 65]  % Effect in WT EZH2 at 20 μM           %       71.459
15  COc1c(OC(C)C)cccc1C(=O)NCc1c(C)cc(C)[nH]c1=O [Example 113]  % Effect in WT EZH2 at 20 μM           %       43.834
16  Cc1cc(C)c(CNC(=O)c2c(F)ccc(OC(C)C)c2Cl)c(=O)[nH]1 [Example 86]  % Effect in WT EZH2 at 20 μM           %       64.416
17  COc1cccc(C(=O)NCc2c(C)cc(C)[nH]c2=O)c1C#N [Example 135]  % Effect in WT EZH2 at 20 μM           %       62.306
18  COc1ccc(C(=O)NCc2c(C)cc(C)[nH]c2=O)c(Cl)c1OC [Example 127]  % Effect in WT EZH2 at 20 μM           %       35.052
19  COc1cccc(C(=O)NCc2c(C)cc(C)[nH]c2=O)c1Cl [Example 79]  % Effect in WT EZH2 at 20 μM           %       71.325
20  COc1cccc(C(=O)NCc2c(C)cc(C)[nH]c2=O)c1Br [Example 66]  % Effect in WT EZH2 at 20 μM           %       76.288
21  Cc1cc(C)c(CNC(=O)c2ncnc(OC(C)C)c2Cl)c(=O)[nH]1 [Example 85]  % Effect in WT EZH2 at 20 μM           %       69.248
